# Format: in vivo, human
# Experimental setup: human, plasma, iv, 200 mg/m2
Value kind: Tmax (min)
// return numeric value only (unit: min, not printed)

Task: Fill in Tmax for record "CN1CCN(c2ccc(Nc3ncc4cc5n(c4n3)C3(CCCCC3)CNC5=O)nc2)CC1"
Output: 24

---

# Assay type: in vivo, human
# Experimental setup: human, plasma, iv, 240 mg/m2
Value kind: half-life (h)
Lab book: enter the figure in h, no units written.

Task: Tell me measured half-life for "CN1CCN(c2ccc(Nc3ncc4cc5n(c4n3)C3(CCCCC3)CNC5=O)nc2)CC1" please.
Output: 10.1

---

# Type: in vivo, human
# Experimental setup: human, plasma, iv, 200 mg/m2
Value kind: AUC(0-t)
Number first, unit second.

Task: Item CN1CCN(c2ccc(Nc3ncc4cc5n(c4n3)C3(CCCCC3)CNC5=O)nc2)CC1 [Trilaciclib, trilaciclib] : provide AUC(0-t)
Output: 3070 ng·h/mL
